Tested on: NCI-H460 lung
Test: NCI tumour cell line growth inhibition, 48 h
The entries below are paired with their reported TGI.

>  <molecule>
CC1CC(NN)=Nc2ccccc2N1 (stereo unspecified)

>  <readout-type>
TGI

>  <experimental-value>
> 100 µM

$$$$

Kindly consider the entry below.
Recorded TGI for COc1ccc(C2C(C#N)=C(N)Oc3c2sc2c(F)cccc32)cc1 (stereo unspecified) , please?
11.9 µM

---

The entries below are paired with their reported TGI.
Test system: UO-31 renal
Assay: NCI tumour cell line growth inhibition, 48 h

Recorded TGI for "N#C/C(=C/NC(=S)NCc1ccccc1)C(N)=O" , please?
> 100 µM

Recorded TGI for "Nc1ccc(Cc2ccc(N=Cc3ccc(OCc4cccc(COc5ccc(C=Nc6ccc(Cc7ccc(N)cc7)cc6)cc5)n4)cc3)cc2)cc1" , please?
> 100 µM

Recorded TGI for "N=C1N(/N=C/c2ccccn2)C(=Nc2ccccc2)C(=S)N1c1ccccc1" , please?
16 µM

Recorded TGI for "COc1c2c(cc3occ(-c4ccc(CC=C(C)C)cc4)c(=O)c13)OC(C)(C)C=C2" , please?
> 100 µM

Recorded TGI for "COc1cc(-c2cc(/C=C3\C(=O)Nc4cc(Cl)ccc43)[nH]n2)cc(OC)c1OC" , please?
15.6 µM

Recorded TGI for "COc1ccc2[nH]c3c(C)c4ccnc(NCCCN(C)CCCNc5ccc([N+](=O)[O-])c6[nH]c7ccccc7c(=O)c56)c4c(C)c3c2c1" , please?
2.21 µM

Recorded TGI for "O=C(/C=C/c1cccs1)c1ccc(Cl)cc1Cl" , please?
34.2 µM

Recorded TGI for CC1CC(NN)=Nc2ccccc2N1 (configuration not stated) , please?
> 100 µM

---

Tested on: COLO 205 colon
Assay: NCI tumour cell line growth inhibition, 48 h
The entries below are paired with their reported TGI.

// solved cases for TGI follow
>  <molecule>
COC(=O)c1cc2/c(=N/O)c3ccccc3sc2o1

>  <target-under-test>
COLO 205 colon

>  <TGI>
> 100 µM

$$$$
>  <molecule>
COc1ccc(C(CC(C)=O)c2c(O)c3ccccc3oc2=O)cc1OC (stereo unspecified)

>  <target-under-test>
COLO 205 colon

>  <TGI>
> 100 µM

$$$$
>  <molecule>
C=C1CCC(OC(C)=O)C2(C)C(OC(C)=O)CC3OC3(C)C2C(OC(C)=O)C2C(C)C(=O)OC2C1Cl (stereo unspecified)

>  <target-under-test>
COLO 205 colon

>  <TGI>
> 100 µM

$$$$

Recorded TGI for C1OC1C1CO1 (stereo unspecified) , please?
> 100 µM

Recorded TGI for "COc1ccc2c(C)cc(C)nc2n1" , please?
> 100 µM

Recorded TGI for "Cc1ccc(S(=O)(=O)Nn2c(S)c(C#N)c(-c3ccc(N(C)C)cc3)c(C#N)c2=O)cc1" , please?
67.8 µM

Recorded TGI for "COc1ccc(-c2nc(N)n(C)c2SSc2c(-c3ccc(OC)cc3)nc(N)n2C)cc1" , please?
4.76 µM

Recorded TGI for COC(=O)[C@@]12C(=O)CCC(=O)C1C1C(=CC2C)O[C@@H]2OC3(CCCCC3)O[C@H]12 (stereo partly specified) , please?
> 100 µM

Recorded TGI for COc1ccc(N2C(Cl)C(=O)C2c2c[nH]c3ccccc23)cc1 (stereo unspecified) , please?
> 100 µM

---

The entries below are paired with their reported TGI.
System: XF 498 CNS
Experiment: NCI tumour cell line growth inhibition, 48 h
Answer format: numeric, µM implied, no suffix.

// solved cases for TGI follow
>  <compound>
COc1ccc(-c2nc(N)n(C)c2SSc2c(-c3ccc(OC)cc3)nc(N)n2C)cc1

>  <TGI, µM>
4.92

$$$$
>  <compound>
CN1N=C(N)c2cn(C3OC(COP(=O)(O)O)C(O)C3O)c3ncnc1c23 (stereo not given)

>  <TGI, µM>
44.9

$$$$
>  <compound>
N#CSCc1nc2ccc(Cl)cc2c(-c2ccccc2)[n+]1[O-]

>  <TGI, µM>
33

$$$$

Kindly consider the entry below.
What is its TGI for XF 498 CNS? Entry: CC(c1ccccc1)N1O[C@]12CC[C@@]1(C)C(CCCC13OCCO3)C2 (stereo not given in full)
44.3

---

Tested on: HOP-62 NSCLC
Experiment: NCI tumour cell line growth inhibition, 48 h
The entries below are paired with their reported GI50.

>  <compound>
Cc1cc(Nc2nc(-c3ccc(F)cc3)nc3ccccc23)n[nH]1

>  <GI50>
4.76 µM

$$$$

Recorded GI50 for "CN1CCN(c2ccc3[nH]c(C4=C(O)c5nc(CCl)n(C)c5C(=O)C4=O)nc3n2)CC1" , please?
20.7 µM

Recorded GI50 for "C[C@H](NC(=O)c1c(N)nn2cccnc12)c1cc2cccc(C#Cc3cnn(C)c3)c2c(=O)n1-c1ccccc1" , please?
8.58 µM

Recorded GI50 for "CSc1nc(N)cc(Oc2ccc(-c3nc(Nc4cccc(C(F)(F)F)c4)n[nH]3)cc2)n1" , please?
0.593 µM

Recorded GI50 for "Cn1cc(C2=C(Oc3ccccc3)C(=O)NC2=O)c2ccccc21" , please?
> 17.8 µM

Recorded GI50 for "O=C1/C(=C\c2ccc(Cl)cc2)CCOc2c1ccc1ccccc21" , please?
25.8 µM

Recorded GI50 for "COc1cccc(/C(COc2ccc3c(c2)oc(=O)c2ccccc23)=N\O)c1" , please?
37 µM

Recorded GI50 for COc1cc(C2CC(c3cccc(Nc4ccnc5cc(Cl)ccc45)c3)=NN2C=O)cc(OC)c1OC (stereo not drawn) , please?
0.846 µM

Recorded GI50 for "NC1CCCCC1N.O=C([O-])c1cc(S(=O)(=O)Nc2cc(S(=O)(=O)[O-])cc3cc(S(=O)(=O)[O-])cc(O)c23)ccc1[O-].[Pt+4]" , please?
> 100 µM

Recorded GI50 for "Cc1c2c(nn1-c1ccc(S/N=C3\SCC(=O)CN3Cc3ccccc3)cc1)-c1ccccc1CC2" , please?
> 100 µM

Recorded GI50 for "CCn1c(-c2nonc2N)nc2c(C#CC(C)(C)O)nc(CN3CCCC3)cc21" , please?
> 25 µM

Recorded GI50 for "C/C(=C1\SC(=NCc2cccs2)NC1=O)c1ccc2ncccc2c1" , please?
21.8 µM

Recorded GI50 for O=C1C=CC=C[C@@H]2C(C3OCCO3)CC[C@H]12.[C-]#[O+].[C-]#[O+].[C-]#[O+].[Fe] (stereo partly drawn) , please?
> 95.3 µM

---

Tested on: HCC-2998 colon
Experiment: NCI tumour cell line growth inhibition, 48 h
readout-type: TGI

// solved cases for TGI follow
>  <compound>
COC(=O)C1(C(=O)OC)CC(=O)c2c(OC(=O)c3cccc(OC)c3C#N)ccc(OC(=O)c3cccc(OC)c3C#N)c2C1

>  <target-under-test>
HCC-2998 colon

>  <experimental-value>
> 100 µM

$$$$
>  <compound>
O=C1NC(=NCc2ccccc2Br)S/C1=C\c1ccc2ncccc2c1

>  <target-under-test>
HCC-2998 colon

>  <experimental-value>
> 25 µM

$$$$
>  <compound>
COc1ccccc1-c1cc(=O)c2c(C)ccnc2[nH]1

>  <target-under-test>
HCC-2998 colon

>  <experimental-value>
> 100 µM

$$$$

Recorded TGI for COc1cccc(CC2C(=O)N=C(NC(C)=O)N2C)c1OC(C)=O (stereo not drawn) , please?
> 100 µM

Recorded TGI for "CSc1nc(N)cc(Oc2ccc(-c3nc(Nc4cccc(C(F)(F)F)c4)n[nH]3)cc2)n1" , please?
4.96 µM

Recorded TGI for "CC1=C(C(=O)CC(=O)C(=O)Nc2cccc(C)c2C)Sc2ccccc2N1" , please?
> 100 µM

Recorded TGI for C1OC1C1CO1 (stereo not drawn) , please?
> 100 µM

Recorded TGI for Cc1cc(S(=O)(=O)NC2=NCC(C)NN2)c(S)cc1Cl (stereo not drawn) , please?
> 100 µM

Recorded TGI for COc1cc(C2S/C(=C/c3ccccc3)C(=O)N2c2cccc(Cl)c2)cc(OC)c1OC (stereo not drawn) , please?
> 100 µM

Recorded TGI for C=CCCCCCCCC(O)C1C[C@H](O)C(CCCCC)O1 (stereo partly drawn) , please?
33.4 µM

Recorded TGI for "O=C1Nc2ccccc2/C1=C\c1c[nH]c2ccc(Br)cc12" , please?
3.45 µM

Recorded TGI for "COc1ccc(-c2nc(N)n(C)c2SSc2c(-c3ccc(OC)cc3)nc(N)n2C)cc1" , please?
31.8 µM

Recorded TGI for "COc1ccc(C2C(C#N)=C(O)NC(O)=C2C#N)cc1OC" , please?
> 100 µM

Recorded TGI for "N#Cc1c(N2CCCC2)ncn(-c2ccccc2)c1=S" , please?
> 100 µM

Recorded TGI for "Cc1ccc(NC(=O)c2cc(S(=O)(=O)Nc3n[nH]c(=O)n3-c3ccccc3)c(S)cc2Cl)cc1" , please?
> 100 µM

Recorded TGI for "CC(C)(Oc1ccc(Cl)cc1)C(=O)N(C(=O)N1CCN(c2ccccc2)CC1)c1ccccc1" , please?
> 100 µM

Recorded TGI for CC(C)(C)c1ccc(S(=O)(=O)N2C(c3cccc(C4CC[C@@H](C(=O)O)N4S(=O)(=O)c4ccc(C(C)(C)C)cc4)c3)CC[C@H]2C(=O)O)cc1 (stereo partly drawn) , please?
> 100 µM

Recorded TGI for CC(C)C1(Cl)CCC2C3(C)CCCC(C)(C(=O)O)C3CC(Cl)C2(Cl)C1Cl (stereo not drawn) , please?
81.9 µM
